- target.desc: Recombinant Human Poly(ADP-Ribose) Polymerase (PARP), PARP-1 (Homo sapiens (Human), UniProt P09874)
- Sequence (P09874 whole entry): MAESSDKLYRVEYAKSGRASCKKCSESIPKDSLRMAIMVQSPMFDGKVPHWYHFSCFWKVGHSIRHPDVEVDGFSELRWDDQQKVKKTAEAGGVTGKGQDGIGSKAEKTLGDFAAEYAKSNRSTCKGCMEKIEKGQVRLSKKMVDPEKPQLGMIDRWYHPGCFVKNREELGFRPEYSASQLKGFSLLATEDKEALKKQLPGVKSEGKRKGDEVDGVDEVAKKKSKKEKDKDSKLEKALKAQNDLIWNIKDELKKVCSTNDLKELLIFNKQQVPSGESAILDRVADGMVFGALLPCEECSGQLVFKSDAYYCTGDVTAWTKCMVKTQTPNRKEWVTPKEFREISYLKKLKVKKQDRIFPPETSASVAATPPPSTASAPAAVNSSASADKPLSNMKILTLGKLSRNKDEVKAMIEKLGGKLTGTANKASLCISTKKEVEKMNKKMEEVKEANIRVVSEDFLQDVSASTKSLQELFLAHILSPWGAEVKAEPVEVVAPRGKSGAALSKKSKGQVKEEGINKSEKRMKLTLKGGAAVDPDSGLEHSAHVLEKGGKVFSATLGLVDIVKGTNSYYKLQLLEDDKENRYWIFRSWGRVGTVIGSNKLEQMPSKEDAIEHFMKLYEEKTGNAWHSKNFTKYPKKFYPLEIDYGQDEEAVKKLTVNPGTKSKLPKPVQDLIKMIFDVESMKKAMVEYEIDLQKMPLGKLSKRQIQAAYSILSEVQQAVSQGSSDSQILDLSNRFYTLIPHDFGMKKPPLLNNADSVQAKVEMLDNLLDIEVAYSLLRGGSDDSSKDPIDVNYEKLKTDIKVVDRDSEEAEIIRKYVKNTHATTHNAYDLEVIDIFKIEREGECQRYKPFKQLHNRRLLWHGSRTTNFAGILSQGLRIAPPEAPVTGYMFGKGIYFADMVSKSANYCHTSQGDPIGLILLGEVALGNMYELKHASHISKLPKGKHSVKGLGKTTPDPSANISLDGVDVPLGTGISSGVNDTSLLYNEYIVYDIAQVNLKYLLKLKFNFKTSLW
- assay.conditions: read-out: PARP-1 (Ki); Table 1; text calls the values EC50s
readout.name: Ki (nM)
// units = nM; emit number, no label

As a guide, the following entries are already answered.
For the compound O=C(NC1CCN(C(=O)c2cc(Cc3n[nH]c(=O)c4c3NCCC4)ccc2F)CC1)c1cccnc1 [Example 747] , give its measured Ki value.
1.5

For the compound O=C(c1cccc(-c2cc(Cc3n[nH]c(=O)c4c3CCCC4)ccc2F)c1)N1CCCC1 [Example 250] , give its measured Ki value.
210

For the compound O=C1CCCN1c1cc(-c2n[nH]c(=O)c3c2CCCC3)ccc1F [Example 491] , give its measured Ki value.
191

More entries:
For the compound CCOCCC(=O)Nc1cccc(Cc2n[nH]c(=O)c3c2CCCC3)c1 [Example 138] , give its measured Ki value.
22

For the compound O=c1[nH]nc(CC2CNCCN2)c2c1CCCC2 (centres unmarked) [Example 261] , give its measured Ki value.
556

For the compound N#Cc1ccc(S(=O)(=O)Nc2cccc(Cc3n[nH]c(=O)c4c3CCCC4)c2)cc1 [Example 121] , give its measured Ki value.
776

For the compound O=C(NCCc1ccc(C(F)(F)F)cc1)c1cccc(Cc2n[nH]c(=O)c3c2CCCC3)c1 [Example 395] , give its measured Ki value.
38

For the compound CCS(=O)(=O)N1CCN(C(=O)c2cc(Cc3n[nH]c(=O)c4c3NCCC4)ccc2F)CC1 [Example 594] , give its measured Ki value.
0.7

For the compound O=C(Nc1cccc(Cc2n[nH]c(=O)c3c2CCCC3)c1)c1cccc(I)c1 [Example 246] , give its measured Ki value.
52

For the compound COc1ccc(C(=O)Nc2cccc(Cc3n[nH]c(=O)c4c3CCCC4)c2)cc1F [Example 229] , give its measured Ki value.
49

For the compound N[C@H]1CCCC[C@@H]1NC(=O)c1cc(Cc2n[nH]c(=O)c3c2NCCC3)ccc1F [Example 740] , give its measured Ki value.
52

For the compound O=C(c1cc(Cc2n[nH]c(=O)c3c2NCCC3)ccc1F)N1CCN(c2cccc(F)c2)CC1 [Example 547] , give its measured Ki value.
2.3

For the compound O=C(c1cnccn1)N1CCCN(C(=O)c2cc(Cc3n[nH]c(=O)c4c3NCCC4)ccc2F)CC1 [Example 693] , give its measured Ki value.
2

For the compound COC(=O)c1ccc(Cc2n[nH]c(=O)c3c2CCCC3)cn1 [Example 86] , give its measured Ki value.
390

For the compound O=C(Nc1cccc(Cc2n[nH]c(=O)c3c2CCCC3)c1)c1ccccc1Nc1ccccc1 [Example 240] , give its measured Ki value.
285

For the compound CC(Cc1n[nH]c(=O)c2c1CCCC2)c1cccc(-c2cccc(C(N)=O)c2)c1 (centres unmarked) [Example 283] , give its measured Ki value.
442

For the compound NC(=O)C1CCCN(C(=O)c2cccc(Cc3n[nH]c(=O)c4c3CCCC4)c2)C1 (centres unmarked) [Example 429] , give its measured Ki value.
19

###

- target.desc: Recombinant Human Poly(ADP-Ribose) Polymerase (PARP), PARP-1 (Homo sapiens (Human))
- assay.conditions: read-out: PARP-1 (Ki); Table 1; text calls the values EC50s
pKi reference
Keep in mind that pKi stands for -log10 of concentration in molar terms.

As a guide, the following entries are already answered.
For the compound Cc1c(C(=O)Nc2cccc(Cc3n[nH]c(=O)c4c3CCCC4)c2)cnn1-c1ccccc1 , give its measured pKi value.
8.05

For the compound Cc1ccnc(SCC(=O)Nc2cccc(Cc3n[nH]c(=O)c4c3CCCC4)c2)n1 , give its measured pKi value.
7.25

For the compound CN(C(=O)c1cc(Cc2n[nH]c(=O)c3c2NCCC3)ccc1F)C1CCN(C(=O)c2cscn2)CC1 , give its measured pKi value.
8.40

For the compound O=C(c1cc(Cc2n[nH]c(=O)c3c2NCCC3)ccc1F)N1CCN(CCN2CCOCC2)CC1 , give its measured pKi value.
8.40

For the compound CC1(C)C(=O)NCCN1C(=O)c1cc(Cc2n[nH]c(=O)c3c2NCCC3)ccc1F , give its measured pKi value.
7.70

More entries:
For the compound O=C(c1cc(Cc2n[nH]c(=O)c3c2NCCC3)ccc1F)N1CCN(C(=O)C2CCCO2)CC1 (centres unmarked) , give its measured pKi value.
8.92

For the compound O=C(Nc1cccc(Cc2n[nH]c(=O)c3c2CCCC3)c1)c1ccc[nH]1 , give its measured pKi value.
6.80

For the compound COC(=O)c1cc(Cc2n[nH]c(=O)c3c2NCCC3)ccc1F , give its measured pKi value.
8.46

For the compound O=C(c1cc(Cc2n[nH]c(=O)c3c2CCCC3)ccc1F)N1CCC(O)CC1 , give its measured pKi value.
8.89

For the compound O=C1CCCN1c1cc(Cc2n[nH]c(=O)c3c2CCCC3)cc[n+]1[O-] , give its measured pKi value.
6.14
